Hey, just so you know, these numbers are from patent US20230097573A1.

Target: T1, hFcRn with a His-tag (human, UniProt P55899 24-297; P61769 21-119)
T1 construct: It may be the same product as m1; also called huFcRn (His tagged molecule, BPS); not shown: His-tag
T1 sequence (P55899 24-297 limits assumed, chain 1 of 2): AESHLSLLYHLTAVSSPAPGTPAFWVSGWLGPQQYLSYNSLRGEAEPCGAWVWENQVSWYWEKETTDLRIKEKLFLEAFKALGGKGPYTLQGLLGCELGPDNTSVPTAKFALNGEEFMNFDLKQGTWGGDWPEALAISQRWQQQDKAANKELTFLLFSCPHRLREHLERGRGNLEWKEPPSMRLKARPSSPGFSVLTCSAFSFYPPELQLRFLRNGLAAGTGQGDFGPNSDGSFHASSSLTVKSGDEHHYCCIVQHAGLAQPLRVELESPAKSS
T1 sequence (P61769 21-119 limits assumed, chain 2 of 2): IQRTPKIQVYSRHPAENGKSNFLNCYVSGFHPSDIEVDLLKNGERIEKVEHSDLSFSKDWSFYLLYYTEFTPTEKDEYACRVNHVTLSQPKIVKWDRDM
Test: BLI (Octet), His-hFcRn on Ni-NTA biosensor, Affimer 40 nM, pH 6.0
Measure Name: Response
Answers are plain numbers.

A selection of reference data follows.
FcRn-48 (designed binder, AFFIMER (stefin A variant)) MIPRGLSEAKPATPEIQEIVDKVKPQLEEKTNETYGKLEAVQYKTQVLAKPKYHHHDISTNYYIKVRAGDNKYMHLKVFNGPGHHAKPHRWADRVLTGYQVDKNKDDELTGFHHHHHH :: 1.44
FcRn-176 (designed binder, AFFIMER (stefin A variant)) MIPRGLSEAKPATPEIQEIVDKVKPQLEEKTNETYGKLEAVQYKTQVLAGRHHESHKSSTNYYIKVRAGDNKYMHLKVFNGPFQHKLHKHHADRVLTGYQVDKNKDDELTGFHHHHHH :: 1.02

Now look at this one.
Looking up FcRn-109 (designed binder, AFFIMER (stefin A variant)) MIPRGLSEAKPATPEIQEIVDKVKPQLEEKTNETYGKLEAVQYKTQVLARPHNRDSHRSTNYYIKVRAGDNKYMHLKVFNGPDRKHRKHWHADRVLTGYQVDKNKDDELTGFHHHHHH , I found its Response recorded as 1.16
